Test system: P. aeruginosa ATCC 27853
Test: Neutropenic mouse bloodstream infection model
Assay type: in vivo
Settings: single IV dose 4 mg/kg, 4 h
Residues, ends and D or L forms follow the SMILES beside them.
Attribute Measured: Log10 CFU/mL blood at 4 h, Mean (Log10 CFU/mL blood)
Write the answer as a number in Log10 CFU/mL blood, unit excluded.

Provide measured Log10 CFU/mL blood at 4 h, Mean value, entry: CC[C@@H]1NC(=O)[C@@H](CC(C)C)NC(=O)[C@H](CCN)NC(=O)[C@@H](NC(=O)[C@H](CN)NC(=O)[C@@H](NC(=O)[C@H](CCN)NC(=O)c2ccc(C)cc2)[C@@H](C)O)CCNC(=O)[C@H]([C@@H](C)O)NC(=O)[C@H](CCN)NC(=O)[C@H](CCN)NC1=O [Lipopeptide F383] (HELM PEPTIDE1{[Cc1ccc(C(=O)[*:2])cc1].[Dab].T.[NC[C@H](N[*:1])C(=O)[*:2]].[Dab].[Dab].[dL].[Abu].[Dab].[Dab].T}$PEPTIDE1,PEPTIDE1,5:R3-11:R2$$$V2.0)
4.91

* * *

System: P. aeruginosa ATCC 27853
Format: cell-based, Pseudomonas aeruginosa
Settings: ATCC 27853
Residues, ends and D or L forms follow the SMILES beside them.
Record form. Attribute: MIC, No Survanta. Fill in for each entry.
Write the answer as a number in µg/mL, unit excluded.

Provide measured MIC, No Survanta value, entry: CC[C@@H]1NC(=O)[C@@H](CC(C)C)NC(=O)[C@H](CCN)NC(=O)[C@@H](NC(=O)[C@H](CN)NC(=O)[C@@H](NC(=O)[C@H](CCN)NC(=O)c2ccc(-c3ccccc3)cc2)[C@@H](C)O)CCNC(=O)[C@H]([C@@H](C)O)NC(=O)[C@H](CCN)NC(=O)[C@H](CCN)NC1=O [Lipopeptide F477] (HELM PEPTIDE1{[O=C(c1ccc(-c2ccccc2)cc1)[*:2]].[Dab].T.[NC[C@H](N[*:1])C(=O)[*:2]].[Dab].[Dab].[dL].[Abu].[Dab].[Dab].T}$PEPTIDE1,PEPTIDE1,5:R3-11:R2$$$V2.0)
1

Provide measured MIC, No Survanta value, entry: CCCCCCCC(=O)N[C@@H](CCN)C(=O)N[C@H](C(=O)N[C@@H](CCN)C(=O)N[C@H]1CCNC(=O)[C@H]([C@@H](C)O)NC(=O)[C@H](CCN)NC(=O)[C@H](CCN)NC(=O)[C@H](CC)NC(=O)[C@@H](CC(C)C)NC(=O)[C@H](CCN)NC1=O)[C@@H](C)O [Lipopeptide F319] (HELM PEPTIDE1{[CCCCCCCC(=O)[*:2]].[Dab].T.[Dab].[Dab].[Dab].[dL].[Abu].[Dab].[Dab].T}$PEPTIDE1,PEPTIDE1,5:R3-11:R2$$$V2.0)
1

Provide measured MIC, No Survanta value, entry: CCCCCCCC(=O)N[C@@H](CCN)C(=O)N[C@H](C(=O)N[C@H](CO)C(=O)N[C@H]1CCNC(=O)[C@H]([C@@H](C)O)NC(=O)[C@H](CCN)NC(=O)[C@H](CCN)NC(=O)[C@H]([C@@H](C)O)NC(=O)[C@@H](CC(C)C)NC(=O)[C@H](CCN)NC1=O)[C@@H](C)O [Lipopeptide F183] (HELM PEPTIDE1{[CCCCCCCC(=O)[*:2]].[Dab].T.[dS].[Dab].[Dab].[dL].T.[Dab].[Dab].T}$PEPTIDE1,PEPTIDE1,5:R3-11:R2$$$V2.0)
4

Provide measured MIC, No Survanta value, entry: CCCCCCCC(=O)N[C@@H](CCN)C(=O)N[C@H](C(=O)N[C@@H](CN)C(=O)N[C@H]1CCNC(=O)[C@H]([C@@H](C)O)NC(=O)[C@H](CCN)NC(=O)[C@H](CCN)NC(=O)[C@H](CC)NC(=O)[C@@H](CC(C)C)NC(=O)[C@H](CCN)NC1=O)[C@@H](C)O [Lipopeptide F287] (HELM PEPTIDE1{[CCCCCCCC(=O)[*:2]].[Dab].T.[NC[C@H](N[*:1])C(=O)[*:2]].[Dab].[Dab].[dL].[Abu].[Dab].[Dab].T}$PEPTIDE1,PEPTIDE1,5:R3-11:R2$$$V2.0)
1

Provide measured MIC, No Survanta value, entry: CC[C@@H]1NC(=O)[C@@H](CC(C)C)NC(=O)[C@H](CCN)NC(=O)[C@@H](NC(=O)[C@H](CN)NC(=O)[C@@H](NC(=O)[C@H](CCN)NC(=O)c2cc(Cl)cc(Cl)c2)[C@@H](C)O)CCNC(=O)[C@H]([C@@H](C)O)NC(=O)[C@H](CCN)NC(=O)[C@H](CCN)NC1=O [Lipopeptide F381] (HELM PEPTIDE1{[O=C(c1cc(Cl)cc(Cl)c1)[*:2]].[Dab].T.[NC[C@H](N[*:1])C(=O)[*:2]].[Dab].[Dab].[dL].[Abu].[Dab].[Dab].T}$PEPTIDE1,PEPTIDE1,5:R3-11:R2$$$V2.0)
0.5

Provide measured MIC, No Survanta value, entry: CCCCCCCC(=O)N[C@@H](CCN)C(=O)N[C@H](C(=O)N[C@H](CN)C(=O)N[C@H]1CCNC(=O)[C@H]([C@@H](C)O)NC(=O)[C@H](CCN)NC(=O)[C@H](CCN)NC(=O)[C@H]([C@@H](C)O)NC(=O)[C@@H](CC(C)C)NC(=O)[C@H](CCN)NC1=O)[C@@H](C)O [Lipopeptide F300] (HELM PEPTIDE1{[CCCCCCCC(=O)[*:2]].[Dab].T.[NC[C@@H](N[*:1])C(=O)[*:2]].[Dab].[Dab].[dL].T.[Dab].[Dab].T}$PEPTIDE1,PEPTIDE1,5:R3-11:R2$$$V2.0)
1

meta.source: paper PMC8956739
